Hello, the source for this data is patent US20260125382A1, in case you need it.

- system: CDK2 (Homo sapiens, UniProt P24941)
- Construct: endogenous in cells; host or cells: MDA-MB-231
- test: CDK protein degradation activity (Western blotting), CDK2
- Format: cell-based
- particulars: MDA-MB-231 cells, 10 μM, 16 hours, Western blot
endpoint: Enzyme degradation CDK2 (% remaining) @ 10 μM (%)

Solved entries:
What the record says about O=C1CC[C@H](N2C(=O)c3ccc(OCC(=O)N4CCC(CCCN5CCN(c6ccc(Nc7ncnc8c7ncn8[C@H]7C[C@@H](NC(=O)Cc8ccccc8)C7)cc6)CC5)CC4)cc3C2=O)C(=O)N1 [Compound 256] : Enzyme degradation CDK2 (% remaining) @ 10 μM is 30

What the record says about O=C1CC[C@H](N2C(=O)c3cccc(OCC(=O)N4CCC(CN5CCC(CNc6ncnc7c6ncn7C6CC(NC(=O)Cc7ccccc7)C6)CC5)CC4)c3C2=O)C(=O)N1 (stereo partly shown) [Compound 182] : Enzyme degradation CDK2 (% remaining) @ 10 μM is 50

What the record says about Cc1cccc(C(=O)N[C@H]2C[C@@H](n3cnc4c(Nc5ccc(N6CCN(C7CC8(CCN(c9cc%10c(cc9F)C(=O)N([C@H]9CCC(=O)NC9=O)C%10=O)CC8)C7)CC6)cc5)ncnc43)C2)n1 [Compound 385] : Enzyme degradation CDK2 (% remaining) @ 10 μM is 30

1. Cc1cccc(C(=O)N[C@H]2C[C@@H](n3cnc4c(NCc5cccc(N6CCN(CC7CCN(c8cccc9c8C(=O)N([C@H]8CCC(=O)NC8=O)C9=O)CC7)CC6)c5)ncnc43)C2)n1 [Compound 136]
2. O=C1CC[C@H](N2C(=O)c3cccc(OCC(=O)N4CCC(CN5CCC(CNc6ncnc7c6ncn7C6CC(NC(=O)c7c(Cl)cccc7Cl)C6)CC5)CC4)c3C2=O)C(=O)N1 (stereo partly shown) [Compound 168]
*Q* Could you tell me which of these two has the smaller Enzyme degradation CDK2 (% remaining) @ 10 μM figure? First: 1 Second: 2 Let me know the label of the one you choose.
*A* 2
(2: 10%, 1: 60%)

* * *

- system: CDK9 (Homo sapiens)
- Construct: endogenous in cells; host or cells: MDA-MB-231
- Sequence (P50750 whole entry): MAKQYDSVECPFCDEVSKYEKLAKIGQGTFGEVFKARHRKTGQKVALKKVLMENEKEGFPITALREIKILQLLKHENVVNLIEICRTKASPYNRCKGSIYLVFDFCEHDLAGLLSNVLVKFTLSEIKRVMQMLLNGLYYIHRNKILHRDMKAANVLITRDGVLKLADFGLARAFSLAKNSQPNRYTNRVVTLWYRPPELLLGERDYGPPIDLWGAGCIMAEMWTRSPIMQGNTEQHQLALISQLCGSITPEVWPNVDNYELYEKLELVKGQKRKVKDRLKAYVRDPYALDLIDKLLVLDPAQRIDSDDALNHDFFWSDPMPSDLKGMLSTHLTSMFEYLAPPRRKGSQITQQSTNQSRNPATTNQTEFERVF
- test: CDK protein degradation activity (Western blotting), CDK9
- Format: cell-based
- particulars: MDA-MB-231 cells, 10 μM, 16 hours, Western blot
endpoint: Enzyme degradation CDK9 (% remaining) @ 10 μM (%)

Solved entries:
What the record says about Cc1cccc(C(=O)N[C@H]2C[C@@H](n3cnc4c(NCc5cccc(N6CCN(CC7CCN(c8cccc9c8C(=O)N([C@H]8CCC(=O)NC8=O)C9=O)CC7)CC6)c5)ncnc43)C2)n1 [Compound 136] : Enzyme degradation CDK9 (% remaining) @ 10 μM is 40

What the record says about Cc1cccc(C(=O)N[C@H]2C[C@@H](n3cnc4c(NCc5cccc(N6CCN(CC7CCN(C(=O)COc8cccc9c8C(=O)N(C8CCC(=O)NC8=O)C9=O)CC7)CC6)c5)ncnc43)C2)n1 (stereo partly shown) [Compound 132] : Enzyme degradation CDK9 (% remaining) @ 10 μM is 0

What the record says about O=C1CC[C@H](N2C(=O)c3ccc(NCC(=O)N4CCC(CN5CCC(c6ccc(Nc7ncnc8c7ncn8C7CC(NC(=O)Cc8ccccc8)C7)cc6)CC5)CC4)cc3C2=O)C(=O)N1 (stereo partly shown) [Compound 290] : Enzyme degradation CDK9 (% remaining) @ 10 μM is 0

A. Cc1cccc(C(=O)NC2CC(n3cnc4c(NC5CCN(CCC6CCN(C(=O)COc7cccc8c7C(=O)N([C@H]7CCC(=O)NC7=O)C8=O)CC6)CC5)ncnc43)C2)n1 (stereo partly shown) [Compound 32]
B. O=C1CC[C@@H](c2ccc(OCC(=O)N3CCC(CCN4CCN(c5ccc(Nc6ncnc7c6ncn7C6CC(NC(=O)Cc7ccccc7)C6)cc5)CC4)CC3)cc2)C(=O)N1 (stereo partly shown) [Compound 433]
C. CC(=O)NC1CC(n2cnc3c(NCC4CCN(CC5CCN(c6cccc7c6C(=O)N([C@H]6CCC(=O)NC6=O)C7=O)CC5)CC4)ncnc32)C1 (stereo partly shown) [Compound 159]
*Q* Descending sort on Enzyme degradation CDK9 (% remaining) @ 10 μM required. Hello, could you send the labels back in the order asked? Thank you.
*A* C, B, A
(C: 30%, B: 10%, A: 0%)

a. O=C1CC[C@H](N2C(=O)c3ccc(N4CCN(C5CC6(CCN(c7ccc(Nc8ncnc9c8ncn9[C@H]8C[C@@H](NC(=O)Cc9ccccc9)C8)cc7)CC6)C5)CC4)cc3C2=O)C(=O)N1 [Compound 335]
b. O=C1CC[C@H](N2C(=O)c3ccc(CCCCN4CCC(N5CCN(c6ccc(Nc7ncnc8c7ncn8C7CC(NC(=O)Cc8ccccc8)C7)cc6)CC5)CC4)cc3C2=O)C(=O)N1 (stereo partly shown) [Compound 408]
*Q* Pick the one with the larger Enzyme degradation CDK9 (% remaining) @ 10 μM: a vs b Let me know the label of the one you choose.
*A* b
(b: 10%, a: 0%)
